Ref: patent US20250042920A1

Target: MNK1 (Homo sapiens, UniProt Q9BUB5)
Sequence (Q9BUB5 whole entry): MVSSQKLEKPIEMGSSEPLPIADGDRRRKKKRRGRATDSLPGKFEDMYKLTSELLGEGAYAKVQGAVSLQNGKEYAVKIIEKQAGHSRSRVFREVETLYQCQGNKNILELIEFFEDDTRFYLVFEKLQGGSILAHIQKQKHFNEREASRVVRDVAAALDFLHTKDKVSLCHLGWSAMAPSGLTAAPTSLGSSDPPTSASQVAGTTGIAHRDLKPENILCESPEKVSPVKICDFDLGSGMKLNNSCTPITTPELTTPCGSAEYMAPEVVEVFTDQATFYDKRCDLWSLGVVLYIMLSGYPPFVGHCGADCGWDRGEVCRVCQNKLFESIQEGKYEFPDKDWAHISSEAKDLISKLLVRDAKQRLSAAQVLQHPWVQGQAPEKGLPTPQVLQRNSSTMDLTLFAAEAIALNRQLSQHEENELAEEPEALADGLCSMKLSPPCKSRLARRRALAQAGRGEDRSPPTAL
Assay: MNK1 kinase inhibition assay (LANCE Ultra kinase activity assay, PerkinElmer)
Type: biochemical
Details: inhibition rate at 1000 nM compound; 450 μM ATP, 60 min, 25° C.; read-out: Inhibitory activity(1 μM) MNK1
Please respond with reported inhibition at 1 µM for every item in the list.

I need inhibition at 1 µM for every entry listed below, if you could help.
1. CN(C)C1CCN(C(=O)c2ccc(-c3cn4c(-c5ccc(F)cc5)csc4n3)cc2)CC1 [Compound 53]
2. CN1CCN(C(=O)c2ccc(-c3nn4c(-c5ccc(C(F)(F)F)cc5)cnc4s3)cc2)CC1 [Compound 21]

1: 25 to 50%; 2: > 75%

I need inhibition at 1 µM for every entry listed below, if you could help.
1. N#Cc1ccc(-c2cnc3sc(-c4ccc(C(=O)OCCCCCO)cc4)nn23)cc1 [Compound 34]
2. CN1CCN(C(=O)c2ccc(-c3nn4c(-c5ccc(F)cc5F)cnc4s3)cc2)CC1 [Compound 26]
3. N#Cc1ccc(-c2cnc3sc(-c4ccc(C(=O)OCCN5CCCC5)cc4)nn23)cc1 [Compound 31]

25 to 50%
25 to 50%
25 to 50%

I need inhibition at 1 µM for every entry listed below, if you could help.
1. O=C(c1ccc(-c2nn3c(-c4ccc(F)cc4)cnc3s2)cc1)N1CCOCC1 [Compound 2]
2. CN(C)C1CCN(C(=O)c2ccc(-c3nn4c(-c5ccc(O)cc5)cnc4s3)cc2)CC1 [Compound 14]
3. O=C(c1ccc(-c2nn3c(-c4ccc(Cl)cc4)cnc3s2)cc1)N1CCOCC1 [Compound 6]

1: > 75%; 2: > 75%; 3: > 75%

###

Target: MNK1 (Homo sapiens, UniProt Q9BUB5)
Assay: MNK1 kinase inhibition assay (LANCE Ultra kinase activity assay, PerkinElmer)
Format: biochemical
Conditions: inhibition rate at 1000 nM compound; 450 μM ATP, 60 min, 25° C.; read-out: Inhibitory activity(1 μM) MNK1
Please respond with reported inhibition at 1 µM for every item in the list.

# example entries with known answers
I would be grateful if you could share the reported inhibition at 1 µM for "N#Cc1ccc(-c2cnc3sc(-c4ccc(C(=O)NCCCCCO)cc4)nn23)cc1" . > 75%

Repeat with "O=C(c1ccc(-c2nn3c(-c4ccc(C(F)(F)F)c(F)c4)cnc3s2)cc1)N1CCOCC1" > 75%

Repeat with "Cc1ccc(-c2cnc3sc(-c4ccc(C(=O)N5CCOCC5)cc4)nn23)cc1" > 75%

***
I would be grateful if you could share the reported inhibition at 1 µM for "CN1CCN(C(=O)c2ccc(-c3cn4c(-c5ccc(C#N)cc5)csc4n3)cc2)CC1" . 25 to 50%

###

Biological target: MNK2 (Homo sapiens)
Test: MNK2 kinase inhibition assay (LANCE Ultra kinase activity assay, PerkinElmer)
Format: biochemical
Settings: inhibition rate at 1000 nM compound; 100 μM ATP, 60 min, 25° C.; read-out: Inhibitory activity(1 μM) MNK2
Method: MNK1 and MNK2 kinase inhibition assays were performed using LANCE Ultra kinase activity assay developed by PerkinElmer. […] The ratio of HTRF signals at 615 nm and 665 nm was detected after 60 min of incubation. […]
measured quantity: inhibition at 1 µM

# example entries with known answers
I would be grateful if you could share the reported inhibition at 1 µM for "CN(C)C1CCN(C(=O)c2ccc(-c3nn4c(-c5ccc(F)cc5)cnc4s3)cc2)CC1" . > 75%

Repeat with "O=C(c1ccc(-c2cn3c(-c4ccc(F)cc4)csc3n2)cc1)N1CCOCC1" 25 to 50%

Repeat with "Cc1ccc(-c2cnc3sc(-c4ccc(C(=O)N5CCOCC5)cc4)nn23)cc1" > 75%

Repeat with "CN1CCN(C(=O)c2ccc(-c3nn4c(-c5ccc(Cl)cc5)cnc4s3)cc2)CC1" > 75%

Repeat with "N#Cc1ccc(-c2cnc3sc(-c4ccc(C(=O)NCCCCCO)cc4)nn23)cc1" > 75%

Repeat with "O=C(c1ccc(-c2cn3c(-c4ccc(Cl)cc4)csc3n2)cc1)N1CCOCC1" 25 to 50%

Repeat with "O=C(c1ccc(-c2nn3c(-c4ccc(F)c(F)c4)cnc3s2)cc1)N1CCOCC1" > 75%

Consider the additional compound presented here.
I would be grateful if you could share the reported inhibition at 1 µM for "N#Cc1ccc(-c2cnc3sc(-c4ccc(C(=O)NCCCN5CCOCC5)cc4)nn23)cc1" . > 75%

###

Target: MNK1 (Homo sapiens)
Test: MNK1 kinase inhibition assay (LANCE Ultra kinase activity assay, PerkinElmer)
Type: biochemical
Settings: inhibition rate at 1000 nM compound; 450 μM ATP, 60 min, 25° C.; read-out: Inhibitory activity(1 μM) MNK1
measured quantity: inhibition at 1 µM

I would be grateful if you could share the reported inhibition at 1 µM for CN(C)C1CCN(C(=O)c2ccc(-c3nn4c(-c5ccc(F)cc5)cnc4s3)cc2)CC1 [Compound 13] . > 75%

Repeat with N#Cc1ccc(-c2cnc3sc(-c4ccc(C(=O)NCCN5CCCC5)cc4)nn23)cc1 [Compound 38] > 75%

Repeat with CN1CCN(C(=O)c2ccc(-c3cn4c(-c5ccc(Cl)cc5)csc4n3)cc2)CC1 [Compound 51] 25 to 50%

Repeat with COc1ccc(-c2cnc3sc(-c4ccc(C(=O)N5CCC(N(C)C)CC5)cc4)nn23)cc1 [Compound 15] > 75%

Repeat with N#Cc1ccc(-c2csc3nc(-c4ccc(C(=O)N5CCOCC5)cc4)cn23)cc1 [Compound 43] 25 to 50%

I need inhibition at 1 µM for every entry listed below, if you could help.
1. O=C(c1ccc(-c2nn3c(-c4ccc(CO)cc4)cnc3s2)cc1)N1CCOCC1 [Compound 8]
2. CN1CCN(C(=O)c2ccc(-c3nn4c(-c5ccc(C#N)cc5)cnc4s3)cc2)CC1 [Compound 17]
3. O=C(c1ccc(-c2cn3c(-c4ccc(C(F)(F)F)cc4)csc3n2)cc1)N1CCOCC1 [Compound 46]

> 75%
> 75%
25 to 50%

###

Biological target: MNK1 (Homo sapiens, UniProt Q9BUB5)
measured quantity: IC50

I need IC50 for every entry listed below, if you could help.
1. O=C(c1ccc(-c2nn3c(-c4ccc(C(F)(F)F)cc4)cnc3s2)cc1)N1CCOCC1
2. CN1CCN(C(=O)c2ccc(-c3nn4c(-c5ccc(Cl)cc5)cnc4s3)cc2)CC1
3. O=C(c1ccc(-c2nn3c(-c4ccc(O)cc4)cnc3s2)cc1)N1CCOCC1
4. O=C(c1ccc(-c2nn3c(-c4ccc(F)cc4)cnc3s2)cc1)N1CCOCC1
5. N#Cc1ccc(-c2cnc3sc(-c4ccc(C(=O)NCCN5CCCC5)cc4)nn23)cc1

1. 50 to 200 nM
2. < 50 nM
3. < 50 nM
4. 200 to 800 nM
5. < 50 nM

###

Please respond with reported inhibition at 1 µM for every item in the list.
Target: MNK2 (Homo sapiens, UniProt Q9HBH9)
Sequence (Q9HBH9 whole entry): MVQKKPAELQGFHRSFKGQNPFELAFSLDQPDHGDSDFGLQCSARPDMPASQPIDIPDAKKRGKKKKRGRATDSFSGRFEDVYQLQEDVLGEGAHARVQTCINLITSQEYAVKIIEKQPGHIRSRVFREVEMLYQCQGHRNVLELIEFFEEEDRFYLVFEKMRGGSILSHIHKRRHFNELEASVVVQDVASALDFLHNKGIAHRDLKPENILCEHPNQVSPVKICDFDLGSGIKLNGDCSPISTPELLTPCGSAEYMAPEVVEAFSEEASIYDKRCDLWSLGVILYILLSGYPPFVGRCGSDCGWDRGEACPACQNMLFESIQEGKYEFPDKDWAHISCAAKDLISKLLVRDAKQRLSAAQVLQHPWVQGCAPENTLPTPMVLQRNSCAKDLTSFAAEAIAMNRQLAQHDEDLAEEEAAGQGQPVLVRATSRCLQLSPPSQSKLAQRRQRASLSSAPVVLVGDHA
Experiment: MNK2 kinase inhibition assay (LANCE Ultra kinase activity assay, PerkinElmer)
Format: biochemical
Conditions: inhibition rate at 1000 nM compound; 100 μM ATP, 60 min, 25° C.; read-out: Inhibitory activity(1 μM) MNK2

I would be grateful if you could share the reported inhibition at 1 µM for "CN1CCN(C(=O)c2ccc(-c3cn4c(-c5ccc(F)cc5)csc4n3)cc2)CC1" . 25 to 50%

Repeat with "O=C(c1ccc(-c2nn3c(-c4ccc(O)c(F)c4)cnc3s2)cc1)N1CCOCC1" > 75%

Repeat with "CN1CCN(C(=O)c2ccc(-c3nn4c(-c5ccc(F)cc5F)cnc4s3)cc2)CC1" 25 to 50%

Repeat with "O=C(c1ccc(-c2nn3c(-c4ccc(Cl)cc4)cnc3s2)cc1)N1CCOCC1" > 75%

Repeat with "CN(C)C1CCN(C(=O)c2ccc(-c3nn4c(-c5ccc(C#N)cc5)cnc4s3)cc2)CC1" > 75%

Repeat with "N#Cc1ccc(-c2cnc3sc(-c4ccc(C(=O)N5CCCC5)cc4)nn23)cc1" > 75%

I need inhibition at 1 µM for every entry listed below, if you could help.
1. CN1CCN(C(=O)c2ccc(-c3cn4c(-c5ccc(C#N)cc5)csc4n3)cc2)CC1
2. CN1CCN(C(=O)c2ccc(-c3nn4c(-c5ccc(C#N)c(F)c5)cnc4s3)cc2)CC1

25 to 50%
> 75%

###

Molecular target: UniProtKB Q9BUB5
Test: MNK1 kinase inhibition assay (LANCE Ultra kinase activity assay, PerkinElmer)
Format: biochemical
Conditions: inhibition rate at 1000 nM compound; 450 μM ATP, 60 min, 25° C.; read-out: Inhibitory activity(1 μM) MNK1
measured quantity: inhibition at 1 µM

I would be grateful if you could share the reported inhibition at 1 µM for CN1CCN(C(=O)c2ccc(-c3nn4c(-c5ccncc5)cnc4s3)cc2)CC1 [Compound 20] . > 75%

Repeat with CN1CCN(C(=O)c2ccc(-c3nn4c(-c5ccc(C#N)c(F)c5)cnc4s3)cc2)CC1 [Compound 24] > 75%

Repeat with CN(C)C1CCN(C(=O)c2ccc(-c3cn4c(-c5ccc(C(F)(F)F)cc5)csc4n3)cc2)CC1 [Compound 54] 25 to 50%

Repeat with O=C(c1ccc(-c2cn3c(-c4ccc(F)cc4)csc3n2)cc1)N1CCOCC1 [Compound 44] 25 to 50%

Repeat with CN1CCN(C(=O)c2ccc(-c3nn4c(-c5ccc(F)nc5)cnc4s3)cc2)CC1 [Compound 28] 50 to 75%

Repeat with CN1CCN(C(=O)c2ccc(-c3nn4c(-c5ccc(C#N)nc5)cnc4s3)cc2)CC1 [Compound 27] 25 to 50%

Repeat with CN(C)CCNC(=O)c1ccc(-c2nn3c(-c4ccc(C#N)cc4)cnc3s2)cc1 [Compound 36] > 75%

Consider the additional compound presented here.
I would be grateful if you could share the reported inhibition at 1 µM for CN1CCN(C(=O)c2ccc(-c3cn4c(-c5ccc(C(F)(F)F)cc5)csc4n3)cc2)CC1 [Compound 50] . 25 to 50%
